System: P. aeruginosa PAO1
protocol_summary: MIC determination by microbroth dilution
Assay type: cell-based, Pseudomonas aeruginosa
condition_details: Pseudomonas aeruginosa
Where a name gives a salt, the structure may show the parent alone.
MIC values by entry

Here is how some compounds turned out for MIC.
{"compound": "CN[C@@H]1[C@H](O)[C@H](NC)C2O[C@]3(O)C(OC2[C@H]1O)O[C@H](C)C[C@H]3NC(=O)CCN (stereo partly drawn) [Compound 1469, Trihydrochloride]", "measured_result": "> 200 µg/mL"}
{"compound": "CN[C@@H]1[C@H](O)[C@H](NC)C2O[C@]3(O)C(OC2[C@H]1O)O[C@H](C)C[C@H]3NC(=O)Cc1csc(Nc2ccccc2)n1 (stereo partly drawn) [Compound 1520, trihydrobromide]", "measured_result": "> 200 µg/mL"}
{"compound": "CN[C@@H]1[C@H](O)[C@H](NC)C2O[C@]3(O)C(OC2[C@H]1O)O[C@H](C)C[C@H]3NC(=O)Cc1ccccc1 (stereo partly drawn) [Compound 1398, Dihydrochloride]", "measured_result": "100 µg/mL"}
{"compound": "CN[C@@H]1[C@H](O)[C@H](NC)C2O[C@]3(O)C(OC2[C@H]1O)O[C@H](C)C[C@H]3NC(=O)CCNC(=O)c1ccccc1 (stereo partly drawn) [Compound 1503, Dihydrochloride]", "measured_result": "> 200 µg/mL"}
{"compound": "CN[C@@H]1[C@H](O)[C@H](NC)C2O[C@]3(O)C(OC2[C@H]1O)O[C@H](C)C[C@H]3NC(=O)Cc1cccc(F)c1F (stereo partly drawn) [Compound 1447, Dihydrochloride]", "measured_result": "> 200 µg/mL"}

# input for lookup
Task: Recorded MIC for CN[C@@H]1[C@H](O)[C@H](NC)C2O[C@]3(O)C(OC2[C@H]1O)O[C@H](C)C[C@H]3NC(=O)Cc1cccc(C)c1 (stereo partly drawn) [Compound 1412, Dihydrochloride] , please?
Output: 100 µg/mL

----------
Each entry below carries its measured MIC, system: Strenotrophomonas maltophilia ATCC 13637.
Where a name gives a salt, the structure may show the parent alone.

{"compound": "CN[C@@H]1[C@H](O)[C@H](NC)C2O[C@]3(O)C(OC2[C@H]1O)O[C@H](C)C[C@H]3NC(=O)Cc1ccc([N+](=O)[O-])cn1 (stereo partly drawn) [Compound 1490, trihydrobromide]", "MIC": "> 200 µg/mL"}

Task: Recorded MIC for CN[C@@H]1[C@H](O)[C@H](NC)C2O[C@]3(O)C(OC2[C@H]1O)O[C@H](C)C[C@H]3NC(=O)c1ccccn1 (stereo partly drawn) [Compound 1370, Dihydrochloride] , please?
Output: > 200 µg/mL

Task: Recorded MIC for CN[C@@H]1[C@H](O)[C@H](NC)C2O[C@]3(O)C(OC2[C@H]1O)O[C@H](C)C[C@H]3NC(=O)Cc1ccccc1 (stereo partly drawn) [Compound 1398, Dihydrochloride] , please?
Output: > 200 µg/mL

----------
System: Strenotrophomonas maltophilia ATCC 13637
Where a name gives a salt, the structure may show the parent alone.
observed_property: MIC

{"compound": "CN[C@@H]1[C@H](O)[C@H](NC)C2O[C@]3(O)C(OC2[C@H]1O)O[C@H](C)C[C@H]3NC(=O)Cc1csc(Nc2ccc(C(F)(F)F)cc2)n1 (stereo partly shown)", "system": "Strenotrophomonas maltophilia ATCC 13637", "measured_result": "200 µg/mL"}
{"compound": "CN[C@@H]1[C@H](O)[C@H](NC)C2O[C@]3(O)C(OC2[C@H]1O)O[C@H](C)C[C@H]3NC(=O)Cc1csc(Nc2ccc(OC(F)(F)F)cc2)n1 (stereo partly shown)", "system": "Strenotrophomonas maltophilia ATCC 13637", "measured_result": "200 µg/mL"}
{"compound": "CN[C@@H]1[C@H](O)[C@H](NC)C2O[C@]3(O)C(OC2[C@H]1O)O[C@H](C)C[C@H]3NC(=O)Cc1cn(Cc2ccccc2)nn1 (stereo partly shown)", "system": "Strenotrophomonas maltophilia ATCC 13637", "measured_result": "> 200 µg/mL"}
{"compound": "CN[C@@H]1[C@H](O)[C@H](NC)C2O[C@]3(O)C(OC2[C@H]1O)O[C@H](C)C[C@H]3NC(=O)[C@H](Cc1ccccc1)NC(=O)CN (stereo partly shown) [Compound 1502, Trihydrochloride]", "system": "Strenotrophomonas maltophilia ATCC 13637", "measured_result": "> 200 µg/mL"}
{"compound": "CN[C@@H]1[C@H](O)[C@H](NC)C2O[C@]3(O)C(OC2[C@H]1O)O[C@H](C)C[C@H]3NC(=O)Cc1nc2ccccc2o1 (stereo partly shown) [Compound 1465, trihydrobromide]", "system": "Strenotrophomonas maltophilia ATCC 13637", "measured_result": "> 200 µg/mL"}
{"compound": "CN[C@@H]1[C@H](O)[C@H](NC)C2O[C@]3(O)C(OC2[C@H]1O)O[C@H](C)C[C@H]3NC(=O)Cc1cccc(C)c1 (stereo partly shown) [Compound 1412, Dihydrochloride]", "system": "Strenotrophomonas maltophilia ATCC 13637", "measured_result": "> 200 µg/mL"}
{"compound": "CN[C@@H]1[C@H](O)[C@H](NC)C2O[C@]3(O)C(OC2[C@H]1O)O[C@H](C)C[C@H]3NC(=O)Cc1ccccc1OC (stereo partly shown) [Compound 1448, Dihydrochloride]", "system": "Strenotrophomonas maltophilia ATCC 13637", "measured_result": "> 200 µg/mL"}
{"compound": "CN[C@@H]1[C@H](O)[C@H](NC)C2O[C@]3(O)C(OC2[C@H]1O)O[C@H](C)C[C@H]3NCc1ccc(C)cc1 (stereo partly shown) [Compound 1425, Trihydrochloride]", "system": "Strenotrophomonas maltophilia ATCC 13637", "measured_result": "> 200 µg/mL"}
{"compound": "CN[C@@H]1[C@H](O)[C@H](NC)C2O[C@]3(O)C(OC2[C@H]1O)O[C@H](C)C[C@H]3NC(=O)CN (stereo partly shown) [Compound 1470, Trihydrochloride]", "system": "Strenotrophomonas maltophilia ATCC 13637", "measured_result": "> 200 µg/mL"}

# input for lookup
Task: Recorded MIC for CN[C@@H]1[C@H](O)[C@H](NC)C2O[C@]3(O)C(OC2[C@H]1O)O[C@H](C)C[C@H]3NCc1ccco1 (stereo partly shown) [Compound 1422, Trihydrochloride] , please?
Output: > 200 µg/mL
